Hello, the source for this data is patent EP4782449A1, in case you need it.

Below: a set of entries, each annotated with reported IC50.
# target or test system: SARM1 (Homo sapiens, UniProt Q6SZW1)
# Construct: inventors produced full-length SARM1 for NAD enzyme activity experiments, and used it for screening; His (C); made in house; host or cells: HEK293 cells, transient transfection; supernatant of digitonin lysate, no further purification described
# Sequence (Q6SZW1 28-724, species assumed): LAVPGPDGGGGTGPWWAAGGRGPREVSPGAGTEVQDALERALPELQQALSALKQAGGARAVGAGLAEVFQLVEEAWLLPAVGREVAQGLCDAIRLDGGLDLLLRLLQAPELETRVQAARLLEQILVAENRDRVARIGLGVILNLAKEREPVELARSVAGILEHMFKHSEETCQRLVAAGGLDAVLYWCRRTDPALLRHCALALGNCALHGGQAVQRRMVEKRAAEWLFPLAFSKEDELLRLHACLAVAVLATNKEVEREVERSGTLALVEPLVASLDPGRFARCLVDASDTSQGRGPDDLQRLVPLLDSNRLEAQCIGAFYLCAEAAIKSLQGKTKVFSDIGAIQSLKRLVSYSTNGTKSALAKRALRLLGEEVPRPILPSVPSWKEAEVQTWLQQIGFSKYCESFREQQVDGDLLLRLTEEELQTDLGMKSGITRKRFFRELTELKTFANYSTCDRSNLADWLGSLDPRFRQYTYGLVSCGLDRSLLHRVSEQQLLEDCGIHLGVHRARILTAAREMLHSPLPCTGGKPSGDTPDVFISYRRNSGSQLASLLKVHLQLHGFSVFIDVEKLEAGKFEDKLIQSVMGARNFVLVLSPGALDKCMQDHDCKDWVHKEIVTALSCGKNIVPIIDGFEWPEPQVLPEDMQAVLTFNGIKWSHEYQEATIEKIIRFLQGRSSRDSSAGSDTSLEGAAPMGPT
# assay info: In vitro biochemical assay for inhibiting SARM1 enzyme activity (PC6 fluorescence, NADase)
# test settings: full-length SARM1 from transfected HEK293 cells; 50 µM NAD, 50 µM PC6, 50 µM NMN activator; room temperature, 30 minutes; read-out: IC50

[
  {
    "molecule": "N#Cc1ccc(CCC(=O)Nc2ccc3c(c2)COc2cnccc2-3)cc1F [Compound 30]",
    "IC50": "100 to 1000 nM"
  },
  {
    "molecule": "O=C(CCc1ccc(F)c(F)c1)Nc1cnc2c(c1)COc1cnccc1-2 [Compound 87]",
    "IC50": "< 100 nM"
  },
  {
    "molecule": "O=C(NCc1ccc2c(c1)OCO2)Nc1ccc2c(c1)COc1cnccc1-2 [Compound 64]",
    "IC50": "1000 to 10000 nM"
  },
  {
    "molecule": "O=C(NCc1ccc(F)cc1)Nc1ccc2c(c1)COc1cnccc1-2 [Compound 45]",
    "IC50": "< 100 nM"
  },
  {
    "molecule": "O=C(COc1ccc(F)cc1)Nc1ccc2c(c1)COc1cnccc1-2 [Compound 74]",
    "IC50": "< 100 nM"
  },
  {
    "molecule": "O=C(NCc1ccccc1)Nc1ccc2c(c1)COc1cnccc1-2 [Compound 71]",
    "IC50": "1000 to 10000 nM"
  },
  {
    "molecule": "O=C1C(Cc2ccc3occc3c2)CCN1c1ccc2c(c1)COc1cnccc1-2 (stereo not shown) [Compound 57]",
    "IC50": "100 to 1000 nM"
  },
  {
    "molecule": "O=C1C(Cc2ccc(Cl)o2)CCN1c1ccc2c(c1)COc1cnccc1-2 (stereo not shown) [Compound 12]",
    "IC50": "100 to 1000 nM"
  },
  {
    "molecule": "O=C(NCc1ccc(Cl)cc1)Nc1ccc2c(c1)COc1cnccc1-2 [Compound 63]",
    "IC50": "100 to 1000 nM"
  },
  {
    "molecule": "O=C1C(Cc2ccc(Cl)s2)CCN1c1ccc2c(c1)COc1cnccc1-2 (stereo not shown) [Compound 7]",
    "IC50": "1000 to 10000 nM"
  },
  {
    "molecule": "CC(C)c1cncc2c1-c1ccc(NC(=O)CCc3ccc(F)cc3)cc1CO2 [Compound 141]",
    "IC50": "1000 to 10000 nM"
  },
  {
    "molecule": "O=C1C(Cc2ccncc2)CCN1c1ccc2c(c1)COc1cnccc1-2 (stereo not shown) [Compound 62]",
    "IC50": "100 to 1000 nM"
  },
  {
    "molecule": "O=C(CCc1ccccc1F)Nc1ccc2c(c1)COc1cnccc1-2 [Compound 136]",
    "IC50": "< 100 nM"
  },
  {
    "molecule": "C=Cc1ccc(CC2CCN(c3ccc4c(c3)COc3cnccc3-4)C2=O)cc1 (stereo not shown) [Compound 149]",
    "IC50": "1000 to 10000 nM"
  },
  {
    "molecule": "O=C(CC1CCc2ccccc21)Nc1ccc2c(c1)COc1cnccc1-2 (stereo not shown) [Compound 76]",
    "IC50": "100 to 1000 nM"
  },
  {
    "molecule": "O=C(CCc1ccccc1)Nc1ccc2c(c1)COc1cnccc1-2 [Compound 38]",
    "IC50": "< 100 nM"
  },
  {
    "molecule": "O=C(CCc1cc(F)c(F)c(F)c1)Nc1ccc2c(c1)COc1cnccc1-2 [Compound 27]",
    "IC50": "< 100 nM"
  },
  {
    "molecule": "O=C(CCc1ccc(Cl)c(F)c1)Nc1ccc2c(c1)COc1cnccc1-2 [Compound 28]",
    "IC50": "100 to 1000 nM"
  },
  {
    "molecule": "O=C(CCc1ccc2c(c1)OCO2)Nc1ccc2c(c1)COc1cnccc1-2 [Compound 20]",
    "IC50": "< 100 nM"
  }
]
